quantity measured: Ki

IN: Provide the documented Ki with Sodium-dependent serotonin transporter (Homo sapiens, UniProt P31645) as the system for `COc1c(OCCF)cccc1C(=O)C1CCN(CCc2ccc(F)cc2)CC1`
Sequence (P31645 whole entry): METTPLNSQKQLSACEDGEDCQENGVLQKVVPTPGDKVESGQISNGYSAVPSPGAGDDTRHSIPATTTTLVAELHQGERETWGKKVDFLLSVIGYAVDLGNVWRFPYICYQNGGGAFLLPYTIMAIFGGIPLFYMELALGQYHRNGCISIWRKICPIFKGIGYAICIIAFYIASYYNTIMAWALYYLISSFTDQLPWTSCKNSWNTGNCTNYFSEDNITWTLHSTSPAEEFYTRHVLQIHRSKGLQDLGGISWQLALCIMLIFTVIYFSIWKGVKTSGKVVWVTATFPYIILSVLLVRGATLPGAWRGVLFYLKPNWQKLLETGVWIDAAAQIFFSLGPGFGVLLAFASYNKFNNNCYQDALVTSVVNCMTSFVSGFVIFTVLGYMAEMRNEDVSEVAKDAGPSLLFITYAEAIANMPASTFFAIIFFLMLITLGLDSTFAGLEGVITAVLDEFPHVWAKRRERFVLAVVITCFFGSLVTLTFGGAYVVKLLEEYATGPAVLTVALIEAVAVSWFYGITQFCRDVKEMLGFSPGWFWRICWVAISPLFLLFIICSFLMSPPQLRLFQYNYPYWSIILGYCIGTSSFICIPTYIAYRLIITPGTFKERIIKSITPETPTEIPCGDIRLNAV
OUT: 3.09 µM

###

pKi: −log10 of the molar value.
quantity measured: pKi

IN: Provide the documented pKi with Sodium-dependent dopamine transporter (Homo sapiens, UniProt Q01959) as the system for `COc1c(OCCF)cccc1C(=O)C1CCN(CCc2ccc(F)cc2)CC1`
Sequence (Q01959 whole entry): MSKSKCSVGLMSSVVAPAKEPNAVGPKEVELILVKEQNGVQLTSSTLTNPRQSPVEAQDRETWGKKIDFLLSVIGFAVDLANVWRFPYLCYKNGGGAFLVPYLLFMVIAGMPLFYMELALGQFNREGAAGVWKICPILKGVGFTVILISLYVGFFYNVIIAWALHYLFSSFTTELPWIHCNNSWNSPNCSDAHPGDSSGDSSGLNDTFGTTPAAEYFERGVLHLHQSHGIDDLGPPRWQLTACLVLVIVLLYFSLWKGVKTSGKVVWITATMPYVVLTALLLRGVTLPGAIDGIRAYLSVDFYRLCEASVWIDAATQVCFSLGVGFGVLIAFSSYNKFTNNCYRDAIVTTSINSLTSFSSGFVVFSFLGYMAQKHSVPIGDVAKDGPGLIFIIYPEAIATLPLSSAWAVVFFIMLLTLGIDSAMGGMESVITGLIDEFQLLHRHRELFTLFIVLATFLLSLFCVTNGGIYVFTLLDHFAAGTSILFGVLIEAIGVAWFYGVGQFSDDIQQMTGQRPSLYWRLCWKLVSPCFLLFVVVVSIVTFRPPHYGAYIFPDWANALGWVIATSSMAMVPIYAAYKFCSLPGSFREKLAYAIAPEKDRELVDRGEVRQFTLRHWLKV
OUT: < 5.00

IN: Provide the documented pKi with Sodium-dependent dopamine transporter (Homo sapiens, UniProt Q01959) as the system for COc1c(OCCF)cccc1C(O)C1CCN(CCc2ccc(F)cc2)CC1 (stereo not drawn)
OUT: < 5.00

IN: Provide the documented pKi with Sodium-dependent dopamine transporter (Homo sapiens, UniProt Q01959) as the system for `COc1c(OCCF)cccc1[C@H](O)C1CCN(CCc2ccc(F)cc2)CC1`
OUT: < 5.00

###

Task for the reader: assign each of the following compounds its reported pKi.
pKi: −log10 of the molar value.

IN: Provide the documented pKi with Alpha-2A adrenergic receptor (Homo sapiens, UniProt P08913) as the system for `COc1c(OCCF)cccc1[C@H](O)C1CCN(CCc2ccc(F)cc2)CC1`
Sequence (P08913 whole entry): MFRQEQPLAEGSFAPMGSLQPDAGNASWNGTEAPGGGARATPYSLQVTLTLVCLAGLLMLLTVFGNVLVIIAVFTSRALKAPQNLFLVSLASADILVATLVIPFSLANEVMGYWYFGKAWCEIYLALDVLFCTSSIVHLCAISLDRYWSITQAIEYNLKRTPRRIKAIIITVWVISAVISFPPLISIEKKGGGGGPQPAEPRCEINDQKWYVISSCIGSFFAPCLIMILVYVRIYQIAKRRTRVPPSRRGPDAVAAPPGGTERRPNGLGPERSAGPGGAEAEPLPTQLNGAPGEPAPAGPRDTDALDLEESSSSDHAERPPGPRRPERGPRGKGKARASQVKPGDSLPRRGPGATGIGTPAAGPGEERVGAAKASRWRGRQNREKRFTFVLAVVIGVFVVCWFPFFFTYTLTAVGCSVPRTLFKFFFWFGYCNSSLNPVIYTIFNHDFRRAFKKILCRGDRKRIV
OUT: < 5.00

IN: Provide the documented pKi with Alpha-2A adrenergic receptor (Homo sapiens, UniProt P08913) as the system for COc1c(OCCF)cccc1C(O)C1CCN(CCc2ccc(F)cc2)CC1 (configuration not stated)
OUT: < 5.00

###

quantity measured: Ki

IN: Provide the documented Ki with Histamine H3 receptor (Homo sapiens, UniProt Q9Y5N1) as the system for `COc1c(OCCF)cccc1[C@H](O)C1CCN(CCc2ccc(F)cc2)CC1`
Sequence (Q9Y5N1 whole entry): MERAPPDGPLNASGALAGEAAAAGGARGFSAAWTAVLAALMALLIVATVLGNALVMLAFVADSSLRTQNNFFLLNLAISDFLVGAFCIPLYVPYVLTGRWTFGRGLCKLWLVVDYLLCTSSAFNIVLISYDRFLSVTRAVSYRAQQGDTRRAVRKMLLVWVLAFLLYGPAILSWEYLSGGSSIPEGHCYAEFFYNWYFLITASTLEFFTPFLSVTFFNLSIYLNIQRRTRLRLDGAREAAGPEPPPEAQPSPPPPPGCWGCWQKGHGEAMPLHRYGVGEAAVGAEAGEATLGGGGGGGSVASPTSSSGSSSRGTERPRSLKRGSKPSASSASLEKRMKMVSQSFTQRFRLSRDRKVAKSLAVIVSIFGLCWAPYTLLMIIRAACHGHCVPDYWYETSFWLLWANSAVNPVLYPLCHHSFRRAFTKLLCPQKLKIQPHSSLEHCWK
OUT: > 10 µM

###

- experiment summary: physchem
- condition: Soerensen buffer
Task for the reader: assign each of the following compounds its reported logP.
Number only, please.

IN: Fill blank: measured logP of the compound COc1c(OCCF)cccc1C(O)C1CCN(CCc2ccccc2)CC1 (stereo not given) is ____.
OUT: 2.92

IN: Fill blank: measured logP of the compound COc1c(OCCF)cccc1C(O)C1CCN(CCc2ccc([N+](=O)[O-])cc2)CC1 (stereo not given) is ____.
OUT: 2.37

IN: Fill blank: measured logP of the compound COc1ccc(CCN2CCC(C(O)c3cccc(OCCF)c3OC)CC2)cc1 (stereo not given) is ____.
OUT: 2.72

IN: Fill blank: measured logP of the compound `COc1c(OCCF)cccc1C(=O)C1CCN(CCc2ccc(F)cc2)CC1` is ____.
OUT: 3.08

IN: Fill blank: measured logP of the compound O=C(c1ccc(F)cc1)C1CCN(CCn2c(=S)[nH]c3ccccc3c2=O)CC1 [ALTANSERIN] is ____.
OUT: 2.15

###

- system under test: UniProtKB P14842
- Sequence (P14842 whole entry): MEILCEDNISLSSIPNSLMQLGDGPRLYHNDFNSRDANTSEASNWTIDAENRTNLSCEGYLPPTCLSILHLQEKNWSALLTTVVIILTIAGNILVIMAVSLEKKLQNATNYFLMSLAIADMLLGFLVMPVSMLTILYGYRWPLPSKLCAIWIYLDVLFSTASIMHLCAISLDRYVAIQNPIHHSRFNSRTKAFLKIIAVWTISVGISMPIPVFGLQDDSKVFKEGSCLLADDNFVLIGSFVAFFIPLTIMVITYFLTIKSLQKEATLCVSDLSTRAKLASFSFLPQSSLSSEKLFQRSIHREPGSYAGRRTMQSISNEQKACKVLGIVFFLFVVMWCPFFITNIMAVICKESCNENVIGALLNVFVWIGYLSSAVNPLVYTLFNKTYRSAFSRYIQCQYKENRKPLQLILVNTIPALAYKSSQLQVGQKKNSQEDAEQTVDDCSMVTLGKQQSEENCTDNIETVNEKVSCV
- experiment summary: biochemical
quantity measured: Ki (nM)
Reply numerically in nM, unit not repeated.

IN: Fill blank: measured Ki of the compound COc1c(OCCF)cccc1C(O)C1CCN(CCc2ccc(N)cc2)CC1 (stereo not drawn) is ____.
OUT: 2.06

IN: Fill blank: measured Ki of the compound `COc1c(OCCF)cccc1[C@H](O)C1CCN(CCc2ccc(F)cc2)CC1` is ____.
OUT: 0.72

IN: Fill blank: measured Ki of the compound COc1c(OCCF)cccc1C(O)C1CCN(CCc2ccc([N+](=O)[O-])cc2)CC1 (stereo not drawn) is ____.
OUT: 26

IN: Fill blank: measured Ki of the compound `O=C(c1ccc(F)cc1)C1CCN(CCn2c(=S)[nH]c3ccccc3c2=O)CC1` is ____.
OUT: 0.72

IN: Fill blank: measured Ki of the compound `COc1ccc(CCN2CCC(C(=O)c3cccc(OCCF)c3OC)CC2)cc1` is ____.
OUT: 153

IN: Fill blank: measured Ki of the compound COc1ccc(CCN2CCC(C(O)c3cccc(OCCF)c3OC)CC2)cc1 (stereo not drawn) is ____.
OUT: 59

IN: Fill blank: measured Ki of the compound COc1cccc(C(O)C2CCN(CCc3ccc([N+](=O)[O-])cc3)CC2)c1OC (stereo not drawn) is ____.
OUT: 90
